Assay: Fluorescence in buffer
Type: physicochemical
Conditions: emission
reported metric: Fluor. λem (nm)

Example compounds with recorded Fluor. λem:
{"columns": ["compound", "Fluor. λem / nm"],
 "data": [
  ["COc1ccc2c(c1)c(CC(=O)NCCNC(=O)c1cc3ccccc3oc1=O)c(C)n2C(=O)c1ccc(Cl)cc1 [Compound 27cc]", 405],
  ["COc1ccc2c(c1)c(CC(=O)NCCCCNC(=O)Cc1ccc(Nc3ccc([N+](=O)[O-])c4nonc34)cc1)c(C)n2C(=O)c1ccc(Cl)cc1 [Compound 27ii]", 605],
  ["COc1ccc2c(c1)c(CC(=O)NCCCCNC(=O)c1ccc(C(=O)[O-])c(C3=c4cc5c6c(c4Oc4c3cc3c7c4CCCN7CCC3)CCC[N+]=6CCC5)c1)c(C)n2C(=O)c1ccc(Cl)cc1 [Compound 27vv]", 603]
]}

[1] CC[N+](CC)=c1ccc2c(-c3ccccc3)c(C)c(/C=C/C=C3/N(CCCCCC(=O)NCCCCNC(=O)Cc4c(C)n(C(=O)c5ccc(Cl)cc5)c5ccc(OC)cc45)c4ccc(S(=O)(=O)[O-])cc4C3(C)C)oc-2c1
[2] COc1ccc2c(c1)c(CC(=O)NCCNS(=O)(=O)c1cccc3c(N(C)C)cccc13)c(C)n2C(=O)c1ccc(Cl)cc1 [Compound 27x]
// pick larger Fluor. λem from pair: 1 vs 2 Your answer should be the label attached to the chosen record.
1
(1: 731 nm, 2: 493 nm)

* * *

Target: COX-2 (Homo sapiens)
Sequence (P35354 18-604): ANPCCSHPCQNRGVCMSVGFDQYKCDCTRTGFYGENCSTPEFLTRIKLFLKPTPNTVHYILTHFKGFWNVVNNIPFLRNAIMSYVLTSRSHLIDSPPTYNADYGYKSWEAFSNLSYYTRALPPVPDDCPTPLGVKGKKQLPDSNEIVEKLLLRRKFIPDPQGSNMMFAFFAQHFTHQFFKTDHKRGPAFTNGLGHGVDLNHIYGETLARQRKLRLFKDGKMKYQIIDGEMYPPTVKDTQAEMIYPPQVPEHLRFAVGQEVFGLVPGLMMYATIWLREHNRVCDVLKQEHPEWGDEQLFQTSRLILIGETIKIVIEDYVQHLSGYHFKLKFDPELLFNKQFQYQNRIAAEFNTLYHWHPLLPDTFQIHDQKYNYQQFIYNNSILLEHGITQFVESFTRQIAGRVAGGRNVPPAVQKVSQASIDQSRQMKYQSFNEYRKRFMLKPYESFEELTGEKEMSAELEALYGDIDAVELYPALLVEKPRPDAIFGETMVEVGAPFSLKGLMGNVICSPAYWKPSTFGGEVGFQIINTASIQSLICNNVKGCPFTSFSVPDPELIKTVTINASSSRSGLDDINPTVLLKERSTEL
Assay: IC50 determinations using purified enzymes (TLC assay), COX-2
Format: biochemical
Design: made in house; host or cells: Sf9 insect cells
Settings: Table 3; assayed against purified enzymes; read-out: IC50 COX-2
reported metric: IC50

Example compounds with recorded IC50:
{"columns": ["compound", "IC50"],
 "data": [
  ["CCN(CC)c1ccc2c(-c3ccc(S(=O)(=O)NCCOCCOCCOCCOCCC(=O)NCCNC(=O)CCc4cc(-c5ccc(C)cc5)n(-c5ccc(S(N)(=O)=O)cc5)n4)cc3S(=O)(=O)[O-])c3ccc(=[N+](CC)CC)cc-3oc2c1 [Compound 30f]", "≥ 25 µM"],
  ["COc1ccc2c(c1)c(CC(=O)NCCCN1CCN(CCCNC(=O)c3ccc(C(=O)[O-])c(C4=c5cc6c7c(c5Oc5c4cc4c8c5CCCN8CCC4)CCC[N+]=7CCC6)c3)CC1)c(C)n2C(=O)c1ccc(Cl)cc1 [Compound 27bbb]", "> 25 µM"],
  ["COc1ccc2c(c1)c(CCNC(=O)c1ccc(C3=c4cc5c6c(c4Oc4c3cc3c7c4CCCN7CCC3)CCC[N+]=6CCC5)c(C(=O)[O-])c1)c(C)n2Cc1ccc(Br)cc1 [Compound 28f]", "> 25 µM"],
  ["COc1ccc2c(c1)c(CCNC(=O)Cc1ccc(Nc3ccc([N+](=O)[O-])c4nonc34)cc1)c(C)n2Cc1ccc(Br)cc1 [Compound 28c]", "> 25 µM"],
  ["COc1ccc2c(c1)c(CC(=O)NCCCCCNC(=O)c1ccc(C(=O)[O-])c(C3=c4cc5c6c(c4Oc4c3cc3c7c4CCCN7CCC3)CCC[N+]=6CCC5)c1)c(C)n2C(=O)c1ccc(Cl)cc1 [Compound 27zz]", "> 25 µM"]
]}

Kindly consider the entry below.
Would you please give the reported IC50 of COc1ccc2c(c1)c(CC(=O)NCCCCNC(=O)c1ccc(C(=O)[O-])c(-c3c4ccc(=[N+](C)C)cc-4oc4cc(N(C)C)ccc34)c1)c(C)n2C(=O)c1ccc(Cl)cc1 [Compound 27xx] with COX-2 (Homo sapiens)?
> 25 µM

Taken from patent US7736624B2.
